Target: IgE antibodies of the individual allergic patient serum II/12
Test: EAST inhibition, individual serum II/12
recorded endpoint: allergenic potency (Prel) at 25% inhibition (relative to native Phl p 5b)

{"binder": "natural Phl p 5b, purified by affinity chromatography (protein) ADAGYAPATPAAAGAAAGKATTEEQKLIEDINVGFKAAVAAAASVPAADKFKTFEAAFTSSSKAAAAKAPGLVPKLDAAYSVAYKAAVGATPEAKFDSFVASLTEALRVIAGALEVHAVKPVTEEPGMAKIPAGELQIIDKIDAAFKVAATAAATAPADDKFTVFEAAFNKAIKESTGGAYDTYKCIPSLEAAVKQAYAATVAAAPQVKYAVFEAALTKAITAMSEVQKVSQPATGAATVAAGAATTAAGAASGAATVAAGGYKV", "experimental value": 1}
{"binder": "rPhl p 5b point mutant PM1 (N32D, D49L, K50A) (protein) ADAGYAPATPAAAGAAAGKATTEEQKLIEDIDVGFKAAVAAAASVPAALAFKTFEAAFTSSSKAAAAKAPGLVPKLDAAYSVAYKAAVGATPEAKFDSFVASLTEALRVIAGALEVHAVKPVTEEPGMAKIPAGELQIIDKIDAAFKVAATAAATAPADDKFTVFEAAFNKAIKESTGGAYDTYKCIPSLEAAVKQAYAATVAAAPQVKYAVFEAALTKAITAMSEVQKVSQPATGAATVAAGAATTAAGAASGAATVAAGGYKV", "experimental value": 0.391}
{"binder": "rPhl p 5b deletion mutant DM3 (deletion A154-T177, A220T) (protein) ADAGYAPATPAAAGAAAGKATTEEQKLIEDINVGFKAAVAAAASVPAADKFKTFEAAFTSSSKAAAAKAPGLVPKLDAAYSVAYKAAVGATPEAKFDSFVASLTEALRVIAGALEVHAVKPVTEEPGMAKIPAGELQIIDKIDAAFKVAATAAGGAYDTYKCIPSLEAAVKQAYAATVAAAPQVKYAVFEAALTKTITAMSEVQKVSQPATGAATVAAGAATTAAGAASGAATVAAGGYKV", "experimental value": 0.012}

The values you see were collected from patent US6919086B1.
